Reported melting point values for the following compounds.

Guide cases for melting point, answers given:
[[record]]
compound = "COc1ccc(OC)c(C=C2SC(=O)N(CC(=O)c3cc4cc(Br)ccc4oc3=O)C2=O)c1 [10k]"
property_label = "melting point"
reported_measurement = "204 to 206 °C"

[[record]]
compound = "Cc1ccc(C=C2SC(=O)N(CC(=O)c3cc4cc(Br)ccc4oc3=O)C2=O)o1 [11d]"
property_label = "melting point"
reported_measurement = "236 to 238 °C"

[[record]]
compound = "O=C(CN1C(=O)SC(=Cc2ccccc2)C1=O)c1cc2ccccc2oc1=O [10a]"
property_label = "melting point"
reported_measurement = "249 to 251 °C"

[[record]]
compound = "O=C(CN1C(=O)SC(=Cc2ccccc2Br)C1=O)c1cc2cc(Br)ccc2oc1=O [10n]"
property_label = "melting point"
reported_measurement = "208 to 210 °C"

[[record]]
compound = "O=C(CN1C(=O)SC(=Cc2ccc([N+](=O)[O-])cc2)C1=O)c1cc2ccccc2oc1=O [10e]"
property_label = "melting point"
reported_measurement = "263 to 265 °C"

[[record]]
compound = "Cc1ccc(C=C2SC(=O)N(CC(=O)c3cc4ccccc4oc3=O)C2=O)cc1 [10b]"
property_label = "melting point"
reported_measurement = "227 to 229 °C"

[[record]]
compound = "COc1ccc(C=C2SC(=O)N(CC(=O)c3cc4ccccc4oc3=O)C2=O)cc1 [10c]"
property_label = "melting point"
reported_measurement = "257 to 259 °C"

[[record]]
compound = "O=C(CN1C(=O)SC(=Cc2ccccc2Br)C1=O)c1cc2ccccc2oc1=O [10g]"
property_label = "melting point"
reported_measurement = "230 to 232 °C"


Given O=C(CN1C(=O)CSC1=O)c1cc2cc(Br)ccc2oc1=O [5b] , state its recorded melting point.
239 to 241 °C
